Recorded TGI values for a group of compounds are listed next.
# System: TK-10 renal
# measurement-protocol: NCI tumour cell line growth inhibition, 48 h

Some solved entries appear below for comparison.
OC[P+](CO)(CO)C12CC3CC(CC(C3)C1)C2 ... > 100 µM
Cc1c(Cl)nc(Cl)nc1Cl ... 7.16 µM
C[Si](C)(N[Si](C)(C)OCCc1ccccc1)OCCc1ccccc1 ... > 100 µM
CCOC(=O)c1cc(C(=O)c2cc(OC)c(OC)c(OC)c2)n2c1ccc1ccccc12 ... > 100 µM
COC(=O)c1ccccc1N1C(=O)Cc2ccccc2C1=O ... > 100 µM

Prompt: Using the record for CCOC(=O)C(Cc1cn(C(C)=O)c2ccccc12)P(=O)(OCC)OCC (stereo not given) , report its TGI.
Response: > 100 µM

Prompt: Using the record for `CCOC(=O)Cc1csc(Nc2ccc(OCC)cc2)n1` , report its TGI.
Response: > 100 µM

Prompt: Using the record for `C=C1C(=O)O[C@H]2[C@H]1CC/C(C=Nc1c(N)cc(C(F)(F)F)cc1C(F)(F)F)=C\CC[C@@]1(C)O[C@@H]21` , report its TGI.
Response: 2.69 µM

Prompt: Using the record for CC1=CCCC2C1(C)CCC(C)C2(C)Cc1cc(O)ccc1O (stereo not given) , report its TGI.
Response: 25.5 µM

Prompt: Using the record for `c1ccc2cc(NCNc3ccc4ccccc4c3)ccc2c1` , report its TGI.
Response: > 67.6 µM
